molecular target: Melanocortin receptor 4 (Homo sapiens, UniProt P32245); test: Agonist activity at human MC4R expressed in CHO cells assessed as increase of alpha-MSH-stimulated cAMP release pretreated for 10 mins before alpha-MSH challenge measured after 40 mins relative to alpha-MSH; type: functional, cell-based
Sequence (P32245 whole entry): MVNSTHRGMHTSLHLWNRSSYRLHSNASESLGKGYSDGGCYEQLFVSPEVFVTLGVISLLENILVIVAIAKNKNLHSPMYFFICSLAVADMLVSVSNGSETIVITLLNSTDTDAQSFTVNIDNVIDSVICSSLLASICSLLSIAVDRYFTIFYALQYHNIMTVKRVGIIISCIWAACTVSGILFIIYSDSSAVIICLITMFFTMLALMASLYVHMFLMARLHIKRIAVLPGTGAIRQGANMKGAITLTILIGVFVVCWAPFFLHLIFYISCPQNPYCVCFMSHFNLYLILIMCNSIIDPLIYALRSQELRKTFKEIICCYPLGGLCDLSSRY
parameter: Activity (%)

> print(dat)
                              record.smiles  unit.info  recorded.measurement
1  Cc1cc2c(cc1Cl)C1(CCN(C(=O)[C@@H]3CN(C(C)(C)C)C[C@H]3c3ccc(F)cc3F)CC1)C[C@@H]2C(C)(C)C(=O)N1CCC(F)(F)C1          %                    96
2  Cc1cc2c(cc1Cl)C1(CCN(C(=O)[C@@H]3CN(C(C)(C)C)C[C@H]3c3ccc(F)cc3F)CC1)C[C@@H]2C(C)(C)C(=O)N1CC(F)(F)C1          %                    78
3  Cc1cc2c(cc1Cl)C1(CCN(C(=O)[C@@H]3CN(C(C)(C)C)C[C@H]3c3ccc(F)cc3F)CC1)C[C@H]2C(C)(C)C(=O)NC1CC1          %                    95

====

experiment: Half life in Sprague-Dawley rat at 1 mg/kg, iv and 4 mg/kg, po; assay type: ADME, organism-based; conditions: in vivo
parameter: half-life (h)

> print(dat)
                              record.smiles  unit.info  recorded.measurement
1  Cc1cc2c(cc1Cl)C1(CCN(C(=O)[C@@H]3CN(C(C)(C)C)C[C@H]3c3ccc(F)cc3F)CC1)C[C@@H]2C(C)(C)C(=O)N1CC(F)(F)C1          h                   7.3

[I] Cc1cc2c(cc1Cl)C1(CCN(C(=O)[C@@H]3CN(C(C)(C)C)C[C@H]3c3ccc(F)cc3F)CC1)C[C@@H]2C(C)(C)C(=O)N(C)C
[II] CC(=O)N(C)C(C)(C)[C@@H]1CC2(CCN(C(=O)[C@@H]3CN(C(C)(C)C)C[C@H]3c3ccc(F)cc3F)CC2)c2cc(Cl)c(C)cc21
**Query** Task for the reader: decide whether I or II has the larger half-life. Please indicate the selected item by its label.
**Result** II

====

target: Melanocortin receptor 4 (Homo sapiens); experiment: Displacement of [125I]-NDP-R-MSH from human MC4R expressed in CHO cells after 1.5 hrs by scintillation counting
parameter: IC50 (nM)

> print(dat)
                              record.smiles                       system.under.test  recorded.measurement
1  CC(=O)N(C)C(C)(C)[C@H]1CC2(CCN(C(=O)[C@@H]3CN(C(C)(C)C)C[C@H]3c3ccc(F)cc3F)CC2)c2cc(Cl)c(C)cc21  Melanocortin receptor 4 (Homo sapiens)                   2.5

[a] Cc1cc2c(cc1Cl)C1(CCN(C(=O)[C@@H]3CN(C(C)(C)C)C[C@H]3c3ccc(F)cc3F)CC1)C[C@@H]2C(C)(C)C(=O)NCC(C)C
[b] CCNC(=O)C(C)(C)[C@@H]1CC2(CCN(C(=O)[C@@H]3CN(C(C)(C)C)C[C@H]3c3ccc(F)cc3F)CC2)c2cc(Cl)c(C)cc21
**Query** In terms of reported IC50, does a or b have the smaller number? I would appreciate it if you answered with the label of your choice.
**Result** a
(a: 6.6 nM, b: 53 nM)

====

biological target: Melanocortin receptor 4 (Homo sapiens); assay: Agonist activity at human MC4R expressed in CHO cells assessed as increase of alpha-MSH-stimulated cAMP release pretreated for 10 mins before alpha-MSH challenge measured after 40 mins
pEC50: −log10 of the molar value.
parameter: pEC50

These solved cases illustrate the format of a correct answer.
> print(dat)
                              record.smiles  parameter  recorded.measurement
1  Cc1cc2c(cc1Cl)C1(CCN(C(=O)[C@@H]3CN(C(C)(C)C)C[C@H]3c3ccc(F)cc3F)CC1)C[C@@H]2C(C)(C)C(=O)N1C[C@@H]2C[C@H]1CO2      pEC50                  9.12
2  Cc1cc2c(cc1Cl)C1(CCN(C(=O)[C@@H]3CN(C(C)(C)C)C[C@H]3c3ccc(F)cc3F)CC1)C[C@@H]2C(C)(C)C(=O)N1CCCC1      pEC50                  9.00
3  CO[C@H]1CCN(C(=O)C(C)(C)[C@H]2CC3(CCN(C(=O)[C@@H]4CN(C(C)(C)C)C[C@H]4c4ccc(F)cc4F)CC3)c3cc(Cl)c(C)cc32)C1      pEC50                  8.92
4  CCN(C)C(=O)C(C)(C)[C@H]1CC2(CCN(C(=O)[C@@H]3CN(C(C)(C)C)C[C@H]3c3ccc(F)cc3F)CC2)c2cc(Cl)c(C)cc21      pEC50                  8.80
5  Cc1cc2c(cc1Cl)C1(CCN(C(=O)[C@@H]3CN(C(C)(C)C)C[C@H]3c3ccc(F)cc3F)CC1)C[C@@H]2C(C)(C)C(=O)N1CC[C@@H](F)C1      pEC50                  8.96

[1] CCNC(=O)C(C)(C)[C@H]1CC2(CCN(C(=O)[C@@H]3CN(C(C)(C)C)C[C@H]3c3ccc(F)cc3F)CC2)c2cc(Cl)c(C)cc21
[2] Cc1cc2c(cc1Cl)C1(CCN(C(=O)[C@@H]3CN(C(C)(C)C)C[C@H]3c3ccc(F)cc3F)CC1)C[C@@H]2C(C)(C)C(=O)N1CC(F)(F)C1
[3] Cc1cc2c(cc1Cl)C1(CCN(C(=O)[C@@H]3CN(C(C)(C)C)C[C@H]3c3ccc(F)cc3F)CC1)C[C@@H]2C(C)(C)C(=O)NCC(C)C
**Query** # sort list by recorded pEC50, greatest to least Record the ranking as a list of labels in the requested order.
**Result** 1, 2, 3

====

molecular target: Melanocortin receptor 4 (Homo sapiens, UniProt P32245); test: Displacement of [125I]-NDP-R-MSH from human MC4R expressed in CHO cells after 1.5 hrs by scintillation counting
parameter: IC50 (nM)

> print(dat)
                              record.smiles  parameter  recorded.measurement
1  Cc1cc2c(cc1Cl)C1(CCN(C(=O)[C@@H]3CN(C(C)(C)C)C[C@H]3c3ccc(F)cc3F)CC1)C[C@@H]2C(C)(C)C(=O)N1CCC(F)(F)C1       IC50                     2
2  CO[C@H]1CCN(C(=O)C(C)(C)[C@H]2CC3(CCN(C(=O)[C@@H]4CN(C(C)(C)C)C[C@H]4c4ccc(F)cc4F)CC3)c3cc(Cl)c(C)cc32)C1       IC50                   2.3
3  Cc1cc2c(cc1Cl)C1(CCN(C(=O)[C@@H]3CN(C(C)(C)C)C[C@H]3c3ccc(F)cc3F)CC1)C[C@@H]2C(C)(C)C(=O)NCCF       IC50                   2.6

====

molecular target: Melanocortin receptor 4 (Homo sapiens, UniProt P32245); test: Agonist activity at human MC4R expressed in CHO cells assessed as increase of alpha-MSH-stimulated cAMP release pretreated for 10 mins before alpha-MSH challenge measured after 40 mins
pEC50: −log10 of the molar value.
parameter: pEC50

> print(dat)
                              record.smiles  recorded.measurement
1  CC(=O)NC(C)(C)[C@H]1CC2(CCN(C(=O)[C@@H]3CN(C(C)(C)C)C[C@H]3c3ccc(F)cc3F)CC2)c2cc(Cl)c(C)cc21                  8.48

[1] Cc1cc2c(cc1Cl)C1(CCN(C(=O)[C@@H]3CN(C(C)(C)C)C[C@H]3c3ccc(F)cc3F)CC1)C[C@@H]2C(C)(C)C(=O)NCc1ccccc1
[2] CNC(=O)C(C)(C)[C@@H]1CC2(CCN(C(=O)[C@@H]3CN(C(C)(C)C)C[C@H]3c3ccc(F)cc3F)CC2)c2cc(Cl)c(C)cc21
**Query** When 1 and 2 are compared, which has the higher number for pEC50? Answer by quoting the chosen item's label.
**Result** 2

====

molecular target: Melanocortin receptor 4 (Homo sapiens); assay: Displacement of [125I]-NDP-R-MSH from human MC4R expressed in CHO cells after 1.5 hrs by scintillation counting
parameter: IC50 (nM)

> print(dat)
                              record.smiles  parameter  recorded.measurement
1  CNC(=O)C(C)(C)[C@H]1CC2(CCN(C(=O)[C@@H]3CN(C(C)(C)C)C[C@H]3c3ccc(F)cc3F)CC2)c2cc(Cl)c(C)cc21       IC50                   2.6

[P] Cc1cc2c(cc1Cl)C1(CCN(C(=O)[C@@H]3CN(C(C)(C)C)C[C@H]3c3ccc(F)cc3F)CC1)C[C@@H]2C(C)(C)C(=O)N1CCOCC1
[Q] Cc1cc2c(cc1Cl)C1(CCN(C(=O)[C@@H]3CN(C(C)(C)C)C[C@H]3c3ccc(F)cc3F)CC1)C[C@@H]2C(C)(C)C(=O)NCCO
[R] Cc1cc2c(cc1Cl)C1(CCN(C(=O)[C@@H]3CN(C(C)(C)C)C[C@H]3c3ccc(F)cc3F)CC1)C[C@H]2C(C)(C)C(=O)NC1CC1
[S] CO[C@@H]1CCN(C(=O)C(C)(C)[C@H]2CC3(CCN(C(=O)[C@@H]4CN(C(C)(C)C)C[C@H]4c4ccc(F)cc4F)CC3)c3cc(Cl)c(C)cc32)C1
[T] Cc1cc2c(cc1Cl)C1(CCN(C(=O)[C@@H]3CN(C(C)(C)C)C[C@H]3c3ccc(F)cc3F)CC1)C[C@H]2C(C)(C)C(=O)NCC(F)(F)F
**Query** Number of compounds to sort: 5. Sort criterion: IC50, ascending. # format: label list in the order the request specifies
**Result** P, S, Q, R, T
(P: 0.85 nM, S: 1.4 nM, Q: 2.6 nM, R: 55 nM, T: 93 nM)

Where do the numbers come from? From ChEMBL document CHEMBL1800059.
